Origin of measurements: the RNAGym collection of RNA variant scans (doi:10.1126/science.aae0568)

B1: tRNA (parent)
chain: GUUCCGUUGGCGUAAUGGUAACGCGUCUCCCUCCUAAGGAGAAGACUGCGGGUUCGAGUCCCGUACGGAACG

Variants of: B1
Assay: yeast fitness relative to wild type (ratio to wild type); higher = fitter; tRNA-Arg(CCU), competitive growth, 37 C, YPD
Fewer inactive variants are shown than the library holds.
Some variants, each annotated with its measured yeast fitness.
OBSERVATION TYPE: yeast fitness

> print(dat)
                              sequence.entry  comparator  measured.value
 1  GUUCAGUUGGCGUAAUGGUAACGCGUCUCCUUCCUAAGGAGAAGACUCCGGGUUAGAGUCCCGUACGGCACG [C5A C31U G48C C55A A69C]           ≤             0.5
 2  GUUCCGUUGGCGUAAUGGUAACGCGUCUCUCUCCUAAGGAAAAGACUGCGGGUUCGAGUCCCGUACGGCACG [C30U G41A A69C]           ≤             0.5
 3  GUUCGGUUGGCGUAAUGGUAACACGUCUCCCUCCUAAGGAGAAGACUGCGGGUUCGAGUUCGGUACGGAACG [C5G G23A C60U C62G]           ≤             0.5
 4  GUUCCGUUGGUGUAAUGCUAACGCGUCUACCUCCUAAGGAGAAGACUGCGGGUUCGAGUCCCGUACCGAACG [C11U G18C C29A G67C]           ≤             0.5
 5  GUUCCGUUGGCGUAAUGGUAACGCGCGUCCCUCCUAAGGCGAAGACUGCGGGUUCGAGUCCCGUACGGAACG [U26C C27G A40C]           ≤             0.5
 6  GUACCGUUGACGUAAUGGAAACGCGUCUCCCUCCUAAGGAGGAGACUGCGGGUUCGAGUCCCGAACGGAACG [U3A G10A U19A A42G U64A]           ≤             0.5
 7  GUUCCGUUGGAGUAAUGGUAGCGCGUCUCCCUCCUAAGGAGAAGACUGCGGGUUCGAGUCCGGUAUGGAACG [C11A A21G C62G C66U]           ≤             0.5
 8  GUUCCGUUGGCGUAAUGGUAAGGCGUUUCCCUACUCAGGAGAGGACUGCGGGUUGGAGUCCCGUACGGAACG [C22G C27U C33A A36C A43G C55G]           ≤             0.5
 9  GUUACGUUGGCGUUAUGGUAACGCGUUACCCUCCUAAGGAGAAGACUGCGGGUUCGAGUCCCGUACGGAACG [C4A A14U C27U U28A]           =           0.859
10  GUUCCGUUGGCGUAAUGGUAACGCGUCUCUCUCCUAAGGAGAAGACUGCGGGUACGAGUCCCAUACGGAACG [C30U U54A G63A]           =           0.704
11  GUUCCGUUGGCGUAAUGGUAACGCGUCUCCCACCUAAGGAGAAGUCUGCGGGUUCGAGUCCCGUACGGAACG [U32A A45U]           =           0.789
12  GUUCCGGUGGCGUAAUGGUAACGCGUCUCCCUCCUAAGGAGGAGACUGCGGGUUCGAGUCCCGUACGGAACG [U7G A42G]           =           0.837
13  GUUCCGUUGGCGUAAAGGUAACGCGUCUCCCUCCUAAGGAAAAGACUGCGGGUUCGAGUCCCGUACGGCACG [U16A G41A A69C]           =           0.631
14  GUUCCGUUGGUGUAAUGGUAACACGUCUCCCUGCUAAGGAGAAGACUGCGGGUUCGAGUCCCGUACGGCACG [C11U G23A C33G A69C]           ≤             0.5
15  GUUCCGUUGGCGUACCGGUAACGCGUCUCCCUCGUAAGGAGAAGAAUGCGGGUUCGAGUCUCGUAGGGAACG [A15C U16C C34G C46A C61U C66G]           ≤             0.5
16  GUUCCGUUGGCAUAAUGGUAACGCGUCUGCCUCCUAAGGAGAAGACUGCGGGUUCGAGUCCCGUACGGAACG [G12A C29G]           =            0.61
17  GUUCCGAUGGCGUAAUGGUAACCCGUCUCCCUCCUAAGGAGAAGAGUGCGCGAUCGAGUCCCGUACGGAACG [U7A G23C C46G G51C U53A]           ≤             0.5
18  GUUGCGUUGGCGUAAUGGUAACGCGUCUCCCUCCUAAGGAGAAGACUUCGGGUUCGAGUCCCGUAUGGAACG [C4G G48U C66U]           ≤             0.5
19  GUUCCGUUGGCGUAAUGGUAACGCGUCUCCAUCCUAAGGAGAAGACUGCGGGUUCAAGUCCCGUGAGCAACG [C31A G56A A65G C66A G68C]           =           0.562
20  GUUCCGUUGGCGUAAUGGUAACGCGUCUCCCUCCUAAGGAGAAGACUGAGGGUUCGAGUCCCGUACAUAACG [C49A G67A G68U]           ≤             0.5
21  GUUCCGUUGGCGUAAUGGUAACGCGUCUCCCUCCUCAGGAGAAGACUGCGGGUUCGAGUCCCGAACGGAACG [A36C U64A]           =           0.932
22  GUUACGAUGGCGUAAUGGUAACGCGUCUCCAUCCUAAGGAGAAGACUGCGGGUUAGAGUCCCGUACGGAACG [C4A U7A C31A C55A]           =           0.717
23  GUUCAGUUGGCGCAAUGGUAACGCGUAGCCCUCCUAAGGAGAAGACUGCGGGUUCGAGUCCCGUACUGAACG [C5A U13C C27A U28G G67U]           ≤             0.5
24  GUUCCGUUGGCGUAAUGGUAACGUGACGCCCUCCUAAGGAGAAGACUACGGGUUCGUGUCCCGUACGGAACG [C24U U26A U28G G48A A57U]           ≤             0.5
25  GUUCCGUUGGCGUAAUGGUAACGCGUCUCCCUCCUAAGGAGAAGACUGCGGGUUCGAAUCCCGUACGGCACG [G58A A69C]           =           0.955
26  GUUCCGUUGGCGUAAUGGUAACGCGUCUCCCUGCUAAGGAGAAGACUGCGCGUUCGAGUCCCGUACGACACG [C33G G51C G68A A69C]           =           0.607
27  GUUCCGUUGGCGUAAUGGUAAGGCGUGUCCGUCCUAAGGAGAAGACUGCGGGUUCAAGUCGCGUACGGUACG [C22G C27G C31G G56A C61G A69U]           ≤             0.5
28  GUUCCGUUGGUGUAAUGGUAACGCGUCUCCCUCCUAAGGAGAAGAGUGCGAGUUCGAGUCCCGUACGGAACG [C11U C46G G51A]           =           0.571
29  GUUCGGUUGGCGUUAUGGUAACGCAUCUCCCUACUAAGGAGAAGACUGCGGGUUCGAGUCUCGUACGGAACG [C5G A14U G25A C33A C61U]           ≤             0.5
30  GUUCGGUUGGCGUAAUGGUAACGCGUCUCCCUCCUAAGGAGAAAACUGCGGGUUCGAGUCCCGUACGGUACG [C5G G44A A69U]           =           0.646
31  GUUCCGUUGGCGUAAUGAUAACGCGUCUCGCUCCUAAGGACAAGACUGCGGGUUCGAGUCCCGUACGGAACG [G18A C30G G41C]           ≤             0.5
32  GUUCCGUUGGCGUAAUGGUAACGCGUCUCCCUCCUAAGGAGCAGACUGCGGGUUCGAGUUCCGUACGAAACG [A42C C60U G68A]           ≤             0.5
33  GUUCCGUUGGCGUAAUGGUAACGCGUCUCCCUCCUACGGAGAAGACUCCGGGUUCGAGUCCCGUACGGAACG [A37C G48C]           =           0.751
34  GUUCCGUUGGCGUAAUGGUAACGCGUCCCCCUCCUAAGGAGAAGACUGCGGGUGCGAGUCCCGUACGGAUCG [U28C U54G A70U]           ≤             0.5
35  GUUCCGUUGGCGUUAUGGUCACGCGUCUCCCUCCUAAGGAGAAGACUGCGGGUUCGAGCCCCGUACGGAACG [A14U A20C U59C]           ≤             0.5
36  GUUCCGUUGGCGUAAUGGUAACGCGUCGCCCUCCUAAAGAGAAGACUGCGGGUUCGAGUGCCGUCCGGCACG [U28G G38A C60G A65C A69C]           =           0.618
37  GUUCCAUUGGCGUAAUGGUAACGUGUCUCCCUCCUAAGGAGAAGACUGCGGGUUCGAAUCCCGUACGGAACG [G6A C24U G58A]           =            0.67
38  GUUCCGUUGGCGUAAUGGCAACGCGUCUCCCUCCUAAAGAAAAGACUGCGGGUUCGAGUCCCGUACGGAACG [U19C G38A G41A]           =           0.577
39  GUUACGUUGGCGUAAUGGUAGCGCGUUUCCCUCCUAAGGAGAAGACUGCGGGUUCGAGUCCCGUACGGAACG [C4A A21G C27U]           =           0.686
40  GUUCCGUUGGCGUUAUGGUAACGCGUCUCCCUCCUAAGGAGAAGACUGCGGGUUCGAGUCCCGCACGGAACG [A14U U64C]           =            0.71
41  GUUCCGUUAGCGUAACGGUAACGCGUCUGCAUGCUAAGGAAAGGACUGCGGGUUCGAGUCCCGUACGGAACG [G9A U16C C29G C31A C33G G41A A43G]           ≤             0.5
42  GUACCGUUGGCGUCAUGGUAACGCGUCUCCCUCCUACGGAGAAGACUGUGGGUUCGAGUCCCGUACGGAACG [U3A A14C A37C C49U]           ≤             0.5
43  GUUCCGUUGGCGUAAUGGUAAUGCGUCUCCCUCCUAAGGAGAAGAGUGCGGGUUAGAGUCCCGUAAGGAACG [C22U C46G C55A C66A]           =           0.564
44  GUUCCGUUGGCGUAAUGGUAACGGGUCUCUCUCAUAAGGAGAAGACUGCGAGUUCGAGUCCCGUACGGAACG [C24G C30U C34A G51A]           =           0.542
45  GUCCCGUUGGCGUAAUGAUAACGCGUCUCCCUCCUAAGGAGAAGACUGCGGGUUCGAGUCCCGUACGGAACG [U3C G18A]           =           0.916
46  GUUCCGUUGGCGCAAUGGUAACGCGUCUCCCUCCUAAGGAGAAGACUGCGGGUUCGUGUCCUGUACGGAACG [U13C A57U C62U]           ≤             0.5
47  GUUCCGUUGGCGUUAUGGUAACGCGUCUCCUUCCUAAGGAGAAGACUGCGGGUUUGAGUCCCGUACGAAACG [A14U C31U C55U G68A]           =           0.618
48  GUUCCGUUGGCGUAAUGGUAACGCGUCUCCCUCCUAAGGAGAAGACCGCGGGUUCGAGUCCCGUACGUAACG [U47C G68U]           =             1.1
